Tested on: HepG2
assay-info: Cytotoxicity against human HepG2 cells by MTT assay
Format: functional, cell-based
test-settings: read-out: pIC50 (converted)
Threshold 90 µM: IC50 strictly smaller gives class 1, otherwise class 0.

> print(dat)
                                smiles.repr  experimental.target    group
1    c1ccc(C[n+]2ccc3c(c2)[nH]c2ccccc23)cc1                HepG2  class 1
2  CCOc1ccc2c3cc[n+](Cc4ccccc4)c(C)c3n(CC)c2c1                HepG2  class 1
3           CCCCn1c2ccccc2c2cc(C=O)nc(C)c21                HepG2  class 0
4           CCCC[n+]1ccc2c(c1)[nH]c1ccccc12                HepG2  class 0
5            CCCCn1c2ccccc2c2cc(CO)nc(C)c21                HepG2  class 0
6           CCCCn1c2cc(OCC)ccc2c2ccnc(C)c21                HepG2  class 1

----------
System: BGC-823
assay-info: Cytotoxicity against human BGC823 cells by MTT assay
Format: functional, cell-based
Note that class boundaries on IC50 are LOW (below 30 µM), MID (30 µM to below 50 µM), HIGH (50 µM or more)

> print(dat)
                                 smiles.repr  experimental.target  group
 1  NCCCCCCNC(=O)c1cc2c3ccccc3n(Cc3ccccc3)c2cn1              BGC-823    MID
 2     CCCCn1c2ccccc2c2cc(C(=O)NCCO)nc(C)c21              BGC-823    MID
 3       OCc1cc2c3ccccc3n(Cc3ccc(F)cc3)c2cn1              BGC-823   HIGH
 4  Cc1nccc2c3ccc(OCc4ccccc4)cc3n(CC(C)C)c12              BGC-823    MID
 5  CCOc1ccc2c3cc[n+](Cc4ccccc4)c(C)c3n(CC)c2c1              BGC-823    LOW
 6  c1ccc(CCC[n+]2ccc3c(c2)[nH]c2ccccc23)cc1              BGC-823    LOW
 7     CCCCn1c2ccccc2c2cc(C(=O)NCCN)nc(C)c21              BGC-823    LOW
 8    CCCCn1c2ccccc2c2cc(C(=O)NCCCCCCN)ncc21              BGC-823   HIGH
 9           CCCC[n+]1ccc2c(c1)[nH]c1ccccc12              BGC-823   HIGH
10  CCOC(=O)c1cc2c([nH]c3ccccc32)c(C)[n+]1Cc1ccccc1              BGC-823   HIGH
11        CCCCn1c2ccccc2c2cc(C(=O)NCCN)ncc21              BGC-823   HIGH

----------
System: BGC-823
assay-info: Cytotoxicity against human BGC823 cells by MTT assay
Assay type: functional, cell-based
pIC50: −log10 of the molar value.
outcome-measure: pIC50

> print(dat)
                                 smiles.repr  outcome.measure  censoring.sign  numeric.readout
 1  O=C(NCCO)c1cc2c3ccccc3n(Cc3ccc(F)cc3)c2cn1            pIC50               <             3.70
 2  Cc1c2c(cc[n+]1Cc1ccccc1)c1ccc(OCc3ccccc3)cc1n2CC(C)C            pIC50               =             5.28
 3   O=C(NCCO)c1cc2c3ccccc3n(Cc3ccccc3)c2cn1            pIC50               <             3.70
 4  Cc1nccc2c3ccc(OC(C)C)cc3n(CCCc3ccccc3)c12            pIC50               =             4.79
 5  Cc1nccc2c3ccc(OCc4c(F)c(F)c(F)c(F)c4F)cc3n(CCCc3ccccc3)c12            pIC50               =             5.10
 6           Cc1nccc2c3ccc(O)cc3n(CC(C)C)c12            pIC50               =             3.85
 7         CCCCOc1ccc2c3ccnc(C)c3n(CCCC)c2c1            pIC50               =             4.80
 8  Cc1nc(C(=O)NCCN)cc2c3ccccc3n(Cc3ccccc3)c12            pIC50               =             4.69
 9      Cc1nccc2c3ccc(O)cc3n(CCCc3ccccc3)c12            pIC50               =             4.52
10       Cc1c2[nH]c3ccccc3c2cc[n+]1Cc1ccccc1            pIC50               =             4.11
11  COc1ccc2c(c1)[nH]c1c(C)[n+](Cc3ccccc3)ccc12            pIC50               =             4.17

----------
compounds and their reported pIC50
Tested on: BGC-823
assay-info: Cytotoxicity against human BGC823 cells by MTT assay
Format: functional, cell-based
pIC50: −log10 of the molar value.
outcome-measure: pIC50

> print(dat)
                                 smiles.repr  censoring.sign  numeric.readout
 1               CCn1c2cc(O)ccc2c2ccnc(C)c21               =             3.80
 2  CCn1c2cc(OCc3c(F)c(F)c(F)c(F)c3F)ccc2c2ccnc(C)c21               =             3.62
 3  CCCCOc1ccc2c3cc[n+](Cc4ccccc4)c(C)c3n(CC(C)C)c2c1               =             5.17
 4     Cc1c2[nH]c3ccccc3c2cc[n+]1CCCc1ccccc1               =             5.46
 5  CCOC(=O)c1cc2c([nH]c3ccccc32)c(-c2cc(OC)c(OC)c(OC)c2)n1               <             3.70
 6           CCCCn1c2ccccc2c2cc(C=O)nc(C)c21               <             3.70
 7  CCCCn1c2ccccc2c2cc(C(=O)O)nc(-c3cc(OC)c(OC)c(OC)c3)c21               =             4.44
 8   NCCNC(=O)c1cc2c3ccccc3n(Cc3ccccc3)c2cn1               =             4.92
 9  Cc1nccc2c3ccc(OCc4ccccc4)cc3n(CCCc3ccccc3)c12               =             4.71
10  O=C(NCCO)c1cc2c3ccccc3n(CCCc3ccccc3)c2cn1               <             3.70
11        CCCCn1c2cc(OC(C)C)ccc2c2ccnc(C)c21               =             4.72

----------
Test system: HepG2
assay-info: Cytotoxicity against human HepG2 cells by MTT assay
Format: functional, cell-based
test-settings: read-out: pIC50 (converted)
compounds and their reported IC50
outcome-measure: IC50

> print(dat)
                                 smiles.repr   result
 1           Cc1nccc2c3ccc(O)cc3n(CC(C)C)c12   115 µM
 2  Cc1nccc2c3ccc(OC(C)C)cc3n(CCCc3ccccc3)c12  14.5 µM
 3  c1ccc(CCC[n+]2ccc3c(c2)[nH]c2ccccc23)cc1  44.7 µM
 4  Cc1nccc2c3ccc(OCc4ccccc4)cc3n(CCCc3ccccc3)c12  15.8 µM
 5    CCCCn1c2ccccc2c2cc(C(=O)NCCCCCCN)ncc21  95.5 µM
 6        CCCCn1c2ccccc2c2cc(C(=O)NCCN)ncc21  83.2 µM
 7             CCOc1ccc2c3ccnc(C)c3n(CC)c2c1  69.2 µM
 8   CCCCCCCCCCOc1ccc2c3ccnc(C)c3n(CCCC)c2c1   126 µM
 9               CCn1c2cc(O)ccc2c2ccnc(C)c21   135 µM
10  Cc1c2c(cc[n+]1Cc1ccccc1)c1ccc(OCc3ccccc3)cc1n2CC(C)C  1.91 µM
11  Cc1nccc2c3ccc(OCc4ccccc4)cc3n(CC(C)C)c12  22.4 µM
